Each recorded value in this set is attributed to patent US20050282743A1.

Target: T1, GST-ZO-1 PDZ domain 1 (Rattus norvegicus (Rat)), A0A0G2
T1 chain: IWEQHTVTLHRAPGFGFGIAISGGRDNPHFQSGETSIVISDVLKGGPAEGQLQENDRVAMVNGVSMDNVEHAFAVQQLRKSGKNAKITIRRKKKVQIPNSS
Assay: G' assay; note: key of the grades not given here
Measurement label: Classification (A450 class)

> print(dat)
                                     binder  measurement.label  readout.value
1  TEGNESSEATSPVNAIYSLA (modifications not checked) [neurofascin (chicken)]     Classification              1
2  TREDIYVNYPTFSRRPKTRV (modifications not checked) [DNAM-1]     Classification              2
3  STDNLVRPFMDTLASHQLYI (modifications not checked) [presenilin-2]     Classification              1
4  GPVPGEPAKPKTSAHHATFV (modifications not checked) [RGS12 (regulator of G-protein signaling 12]     Classification              1
5  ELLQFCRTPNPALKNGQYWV (modifications not checked) [CSPG4 (chondroitin sulfae proteoglycan 4, melanoma-associated)]     Classification              5
6  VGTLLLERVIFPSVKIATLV (modifications not checked) [AdenoE4 typ9]     Classification              2
7  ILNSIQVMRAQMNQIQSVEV (modifications not checked) [ephrin B2]     Classification              3
8  TFAAGFNSTGLPHSTTRV (modifications not checked) [Neuroligin]     Classification              1
9  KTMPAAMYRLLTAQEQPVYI (modifications not checked) [MINT-1]     Classification              1
